System: Staphylococcus epidermidis
method: Susceptibility (MIC) of S. epidermidis isolates used in CVC studies
condition summary: strain 1315 Staphylococcus epidermidis
measurement name: MIC

Recorded MIC, per entry:
- compound: "CCCCCCCCCC(=O)N[C@@H](Cc1c[nH]c2ccccc12)C(=O)N[C@H](CC(N)=O)C(=O)N[C@@H](CC(=O)O)C(=O)N[C@@H]1C(=O)NCC(=O)N[C@@H](CCCN)C(=O)N[C@@H](CC(=O)O)C(=O)N[C@H](C)C(=O)N[C@@H](CC(=O)O)C(=O)NCC(=O)N[C@H](CO)C(=O)N[C@@H]([C@H](C)CC(=O)O)C(=O)N[C@@H](CC(=O)c2ccccc2N)C(=O)O[C@@H]1C [Daptomycin]"
  MIC: "0.5 µg/mL"
- compound: "CN[C@H](CC(C)C)C(=O)N[C@H]1C(=O)N[C@@H](CC(N)=O)C(=O)N[C@H]2C(=O)N[C@H]3C(=O)N[C@H](C(=O)N[C@H](C(=O)O)c4cc(O)cc(O)c4-c4cc3ccc4O)[C@H](O)c3ccc(c(Cl)c3)Oc3cc2cc(c3O[C@@H]2O[C@H](CO)[C@@H](O)[C@H](O)[C@H]2O[C@H]2C[C@](C)(N)[C@H](O)[C@H](C)O2)Oc2ccc(cc2Cl)[C@H]1O [Vancomycin]"
  MIC: "1 µg/mL"
- compound: "CC(=O)NC[C@H]1CN(c2ccc(N3CCOCC3)c(F)c2)C(=O)O1 [Linezolid]"
  MIC: "0.5 µg/mL"
- compound: "CCOc1ccc2ccccc2c1C(=O)N[C@@H]1C(=O)N2[C@@H]1SC(C)(C)[C@@H]2C(=O)O [Nafcillin]"
  MIC: "2 µg/mL"

In the following, a different compound is considered.
Exercise: Query (compound): CO[C@H]1/C=C/O[C@@]2(C)Oc3c(C)c(O)c4c(O)c(c(/C=N/N5CCN(C)CC5)c(O)c4c3C2=O)NC(=O)/C(C)=C\C=C\[C@H](C)[C@H](O)[C@@H](C)[C@@H](O)[C@@H](C)[C@H](OC(C)=O)[C@@H]1C [Rifampicin] ; field requested: MIC
Key: < 0.004 µg/mL
